Where these numbers come from: ChEMBL document CHEMBL5058577

- System: Fibroblast
- protocol-summary: Multiplex assay against human fibroblast
- Type: toxicity, cell-based
- condition-set: 12 h, 10 µM, compound concentration 10 uM, replicate 1
measured-property: Population Mitochondria Different-Phenotype (%)

compound	obs-value
CC[C@H]1OC(=O)[C@H](C)[C@@H](O[C@H]2C[C@@](C)(OC)[C@@H](O)[C@H](C)O2)[C@H](C)[C@@H](O[C@@H]2O[C@H](C)C[C@H](N(C)C)[C@H]2O)[C@@]2(C)CC(C)=C(O2)[C@H](C)[C@@H](O)[C@]1(C)O	25
COc1ccc2c(c1)C(C(=O)N(Cc1ccc(N(C)C)cc1)c1ccc(C(C)C)cc1)CCC2.Cl (configuration not stated)	12
Cc1ccccc1C(=O)Nc1ccc(C(=O)N2CCCC(N(C)C)c3ccccc32)cc1.Cl (configuration not stated)	12
CC1(COc2ccc3c(c2)ncn3-c2ccc3cccc(N4CCC(N)CC4)c3n2)COC1	6
CC(=O)NCCc1c(Cc2ccccc2)[nH]c2ccccc12	7
COc1cc(NC(=O)CCN2CCC(OC(=O)Nc3ccccc3-c3ccccc3)CC2)c(Cl)cc1CNC[C@H](O)c1ccc(O)c2[nH]c(=O)ccc12	22
CN(C)CCCc1cc(C(=O)Nc2ccc(-c3ccncc3)cc2)ccc1O.Cl.Cl	15
N#Cc1c(N)nc(SCc2csc(-c3ccc(Cl)cc3)n2)c(C#N)c1-c1ccc(OCCO)cc1	10
C[C@@H]1C[C@H]2[C@@H]3CCC4=CC(=O)C=C[C@]4(C)[C@@]3(F)[C@@H](O)C[C@]2(C)[C@@]1(O)C(=O)CO	5
O=C(O)c1cc2ccccc2c(Cc2c(O)c(C(=O)O)cc3ccccc23)c1O	5
C[C@H]1[C@H]2CC[C@H]3[C@@H]4CC=C5C[C@@H](N(C)C)CC[C@]5(C)[C@H]4CC[C@]23CN1C	10
CCCC(CCC)C(=O)O	3
N[C@@]1(C(=O)O)CO[C@H]2[C@H](C(=O)O)[C@H]21	3
CC(C)(C)c1ccc(S(=O)(=O)Nc2ccc(Cl)cc2C(=O)c2cc[n+]([O-])cc2)cc1	1
CN1CCN2c3ncccc3Cc3ccccc3C2C1 (configuration not stated)	8
Cc1ccc(F)cc1C(=O)Nc1ccc(C(=O)N2Cc3cccn3Cc3ccccc32)c(Cl)c1	5
CSc1ccccc1N1CCN(CCCCCC(=O)NC2CCCc3ccccc32)CC1.Cl (configuration not stated)	78
